Measured melting point by item

# example entries with known answers
{"MOLECULE": "CCOCCNC1CCCCC1Cc1ccc(-c2cccc(N)n2)cc1 (stereo not given)", "melting point": "70 to 90 °C"}
{"MOLECULE": "CCOC(=O)C(=CN(C)C)C(=O)c1cc2cc(F)c(F)c(F)c2nc1Cl", "melting point": "118 °C"}
{"MOLECULE": "CCCn1c(COCC)nc2c(N)nc3ccc(OCCCCCCNC(=O)NC(C)C)cc3c21", "melting point": "167 to 169 °C"}
{"MOLECULE": "COC(=O)[C@H](Cc1c(Br)[nH]c2cc(Br)c(OC)cc12)NC(C)=O", "melting point": "174 to 175 °C"}
{"MOLECULE": "Cc1c(C#N)ncn1-c1cccc(Cl)c1", "melting point": "117 to 118 °C"}
{"MOLECULE": "COC(=O)CCc1cc(C)c(O)c(C)c1", "melting point": "70 to 83 °C"}
{"MOLECULE": "CCCCn1c(=O)c2c(ncn2S(=O)(=O)c2c(C)cc(C)cc2C)n(CCCC)c1=O", "melting point": "125 to 127 °C"}
{"MOLECULE": "Cn1c(=O)c2cn(S(=O)(=O)CCCCl)nc2n(C)c1=O", "melting point": "160 to 162 °C"}
{"MOLECULE": "COc1cc(N)c2ncccc2c1OCc1ccc(Cl)cc1", "melting point": "122 to 123 °C"}
{"MOLECULE": "C#CCOc1ccc2c(C)cc(=O)oc2c1C(=O)C=Cc1ccccc1", "melting point": "140 to 142 °C"}

response.value for CCCC1CCC(C2CCc3c4c(c(F)c(F)c3O2)OCCC4)CC1 (stereo not given) (field: melting point) = 152 °C

response.value for `O=C(Oc1cc2c(c3ccccc13)Nc1ccccc1S2)c1ccccc1` (field: melting point) = 171 °C

response.value for `CCOC(=O)c1ncc2[nH]c3ccc(NC(C)=O)cc3c2c1C` (field: melting point) = 273 to 278 °C

response.value for `CCCCc1cc(CCCC)n2ncc(Br)c2n1` (field: melting point) = 47 to 48 °C

response.value for `Fc1cc(CC2(Cc3ccnc(F)c3)c3ccccc3-c3ncccc32)ccn1` (field: melting point) = 137 to 140 °C
